The reported measurements were obtained from ChEMBL document CHEMBL3507680.

assayProcedure: Human HepG2 cell viability assay in 384 well format
Format: toxicity, cell-based
Parameters: dose 125 nL, time 70.5 hour; concentration not given beside the values
conditionParameters: HepG2 cells, read-out: Inhibition
quantityKind: cytotoxicity at 70.5 h (%)

[[record]]
compound = "COc1ccc(CNC2CCc3ncnn3C2)cc1OCCCC#N (configuration not stated)"
resultvalue = -9.41

[[record]]
compound = "Cc1cc(NC(C)c2nncn2C2CCCC2)n2nc(C)c(C)c2n1 (configuration not stated)"
resultvalue = -12.4

[[record]]
compound = "COc1ccc(C(=O)COc2coc(CN3CCCCC3)cc2=O)cc1"
resultvalue = -5.06

[[record]]
compound = "CCN1CCOC(CNCc2ccc(C)s2)C1 (configuration not stated)"
resultvalue = -4.21

[[record]]
compound = "CN1CCCC2(CCN(C(=O)c3ccncc3)C2)C1 (configuration not stated)"
resultvalue = 7.77

[[record]]
compound = "O=C(NCc1cccnc1N1CCCC(O)C1)c1ccc2[nH]nnc2c1 (configuration not stated)"
resultvalue = -25

[[record]]
compound = "O=C(Cn1c(=O)n(Cc2ccco2)c2ncccc21)NC1CCCCC1"
resultvalue = 38.5

[[record]]
compound = "COCCNC(=O)c1cc2c(s1)CCN2S(C)(=O)=O"
resultvalue = -6.66

[[record]]
compound = "O=C1[C@H]2CN(C(=O)[C@H]3CCCO3)C[C@H]2CN1CCN1CCCC1"
resultvalue = -9.56

[[record]]
compound = "CC(NC(=O)CCc1ccsc1)c1ccc2c(c1)NC(=O)CO2 (configuration not stated)"
resultvalue = -6.31

[[record]]
compound = "Cc1ccc(CN(CCN(C)C)C(=O)Nc2cnn(C)c2)s1"
resultvalue = -7.54

[[record]]
compound = "CCOCC(=O)N1CCC(c2nccn2CC2CC2)CC1"
resultvalue = 1.15


* * *

assayProcedure: Human HepG2 cell viability assay in 384 well format
Format: toxicity, cell-based
Parameters: dose 125 nL, time 70.5 hour; concentration not given beside the values
conditionParameters: HepG2 cells, read-out: Inhibition
quantityKind: cytotoxicity at 70.5 h

[[record]]
compound = "CC(C)(C)c1ccc(CN2C[C@H]3C[C@H](O)C[C@H]3C2)c(OCC(N)=O)c1"
resultvalue = "-2.7%"

[[record]]
compound = "Cc1nc2[nH]cnc(Nc3ccn(C)n3)c-2n1"
resultvalue = "-4.89%"

[[record]]
compound = "CC(C)OCCN1CCC(Nc2nccnc2C#N)CC1"
resultvalue = "62.9%"

[[record]]
compound = "COc1ccc(CN2CC[C@H](O)[C@@H]2Cc2cnn(C)c2)cc1"
resultvalue = "-11.4%"

[[record]]
compound = "CCC(CC)NC(=O)CN1CCN(C(=O)N(C)C)CC1"
resultvalue = "-0.0942%"

[[record]]
compound = "Cn1cc(C[C@H]2[C@H](O)CCN2C(=O)c2ccsc2)cn1"
resultvalue = "-4.72%"

[[record]]
compound = "Cc1cnn(C2CCCN(C(=O)Cc3c(C)nn(C)c3C)C2)c1 (stereo unspecified)"
resultvalue = "0.294%"

[[record]]
compound = "CCN(CC1CCCCO1)C(=O)CCNC(=O)c1ccccc1F (stereo unspecified)"
resultvalue = "-11.6%"

[[record]]
compound = "CC(C)c1ccc(CN[C@@H]2COC[C@H]2c2ccc(F)cc2)cc1"
resultvalue = "-5.3%"

[[record]]
compound = "O=C1OC2(CCN(C(=O)C3NCCc4[nH]cnc43)CC2)c2ccccc21 (stereo unspecified)"
resultvalue = "-9.73%"

[[record]]
compound = "CSc1[nH]nc(NC(=O)c2cccs2)c1C#N"
resultvalue = "-10.4%"

